Recorded values, source patent EP4768499A1.

Caco2 Papp (10^-6 cm/sec) overview
Test system: Caco-2 cells
test: Membrane permeability test using Caco-2 cells with preincubation
Type: in vitro ADME
condition.parameters: Caco-2
Procedure: The permeability coefficient (Caco-2 Papp (cm/sec)) is calculated using a numerical expression 1. [Expression 1] Papp = (1)/(C1 (0) × S) × (dQ)/(dt) [formula] dQ/dt represents the permeation rate of drug (the amount of drug appearing on the Basal side per unit time), S represents the total surface area of cells, and C1(0) represents the concentration of drug added on the Apical side. […]
Starred links: 1 amine or outer side, 2 acyl side, 3 side chain; linkers in the order of their positions; H or OH if unused. Positions of bridges follow the written chain, without caps; N, C: chain ends. Non-standard residues stand in square brackets, D forms with d. Residues, ends and D or L forms follow the SMILES beside them. *: point of attachment. NMedβ3hAla = C[C@H](CC(=O)[*:2])N(C)[*:1]; NMeF = CN[C@@H](Cc1ccccc1)C(=O)O; NMeI = CC[C@H](C)[C@H](NC)C(=O)O; hPhe = N[C@@H](CCc1ccccc1)C(=O)O; NMeβAla = CN(CCC(=O)[*:2])[*:1]; NMeD = CN[C@@H](CC(=O)O)C(=O)O; NMeL = CN[C@@H](CC(C)C)C(=O)O; NMeV = CN[C@H](C(=O)O)C(C)C; NMeAbu = CC[C@H](NC)C(=O)O; NMeA = CN[C@@H](C)C(=O)O; Piperidide = C1CCN(*)CC1; βAla = NCCC(=O)O; Sar = CNCC(=O)O

# example entries with known answers
CC[C@H](C)[C@@H]1NC(=O)[C@H]([C@@H](C)CC)N(C)C(=O)[C@@H](C)NC(=O)C[C@@H](C(=O)N2CCCCC2)N(C)C(=O)[C@H](Cc2ccccc2)N(C)C(=O)[C@H](C(C)C)NC(=O)CCN(C)C(=O)[C@H](CC)N(C)C(=O)[C@H](CC(C)C)N(C)C(=O)[C@H](C)NC(=O)CN(C)C(=O)[C@H](CC(C)C)N(C)C(=O)CCN(C)C(=O)[C@H](Cc2ccccc2)N(C)C1=O [pd081] ([dA][NMeI]I[NMeF][NMeβAla][NMeL][Sar]A[NMeL][NMeAbu][NMeβAla]V[NMeF][NMeD]-Piperidide; lactam N-14)
0.02 10^-6 cm/sec
CC[C@H](C)[C@H]1C(=O)NCCC(=O)N(C)[C@@H](CC(C)C)C(=O)N[C@H](C(=O)N2CCCCC2)CC(=O)N(C)[C@@H](C)C(=O)N[C@@H](CC(C)C)C(=O)N[C@@H]([C@@H](C)O)C(=O)N(C)[C@@H](Cc2ccccc2)C(=O)NCCC(=O)N(C)[C@@H](C(C)C)C(=O)N[C@@H](CC(C)C)C(=O)N(C)[C@@H]([C@@H](C)CC)C(=O)N[C@@H](CCc2ccccc2)C(=O)N(C)CC(=O)N1C [pd024] ([NMeA]LT[NMeF][βAla][NMeV]L[NMeI][hPhe][Sar][NMeI][βAla][NMeL]D-Piperidide; lactam N-14)
0.30 10^-6 cm/sec
CC[C@H](C)[C@H]1C(=O)N(C)[C@@H](CC(C)C)C(=O)N[C@@H](CCc2ccccc2)C(=O)N(C)[C@@H](CC(C)C)C(=O)N(C)CCC(=O)N(C)[C@@H](C(C)C)C(=O)N[C@@H](CC(C)C)C(=O)N(C)[C@@H](CC(C)C)C(=O)N[C@@H]([C@@H](C)O)C(=O)N(C)CCC(=O)N(C)[C@@H](Cc2ccccc2)C(=O)N[C@@H](C(C)C)C(=O)N(C)[C@H](C(=O)N2CCCCC2)CC(=O)N(C)CC(=O)N1C [pd096] ([Sar][NMeI][NMeL][hPhe][NMeL][NMeβAla][NMeV]L[NMeL]T[NMeβAla][NMeF]V[NMeD]-Piperidide; lactam N-14)
0.51 10^-6 cm/sec

// next entry
[in] What Caco2 Papp (10^-6 cm/sec) appears in the records for this compound with Caco-2 cells? CC[C@H](C)[C@@H]1NC(=O)[C@H](CC(C)C)N(C)C(=O)[C@H](CC(C)C)NC(=O)CCN(C)C(=O)C[C@@H](C)N(C)C(=O)[C@H](CC(C)C)N(C)C(=O)CNC(=O)[C@@H]2CCCN2C(=O)[C@H](CC(C)C)N(C)C(=O)CCNC(=O)[C@H]([C@@H](C)CC)N(C)C(=O)[C@H](CCc2ccccc2)NC(=O)[C@H](Cc2ccccc2)N(C)C1=O [pd141] (cyclo(G[NMeL][NMedβ3hAla][NMeβAla]L[NMeL]I[NMeF][hPhe][NMeI][βAla][NMeL]P))
[out] 0.24 10^-6 cm/sec
